# targetOrTestSystem: human ghrelin receptor (human, UniProt Q92847 1-366)
# Sequence (Q92847 whole entry): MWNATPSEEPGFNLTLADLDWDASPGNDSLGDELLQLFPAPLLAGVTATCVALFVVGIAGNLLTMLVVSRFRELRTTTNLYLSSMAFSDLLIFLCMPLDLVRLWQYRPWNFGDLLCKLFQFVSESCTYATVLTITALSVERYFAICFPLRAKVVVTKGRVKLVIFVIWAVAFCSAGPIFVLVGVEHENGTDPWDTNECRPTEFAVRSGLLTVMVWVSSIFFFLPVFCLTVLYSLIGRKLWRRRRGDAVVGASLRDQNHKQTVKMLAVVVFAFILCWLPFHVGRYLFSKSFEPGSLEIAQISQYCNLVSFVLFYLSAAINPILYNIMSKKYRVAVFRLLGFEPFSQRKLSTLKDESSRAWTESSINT
# testDetails: cell-based or functional assay
Where no end group is shown, it is not given here. [ ]: non-standard residue; d: D form. d1Nal = N[C@H](Cc1cccc2ccccc12)C(=O)O; Nva = CCC[C@H](N)C(=O)O
Assign Emax [Δ %], inverse agonistic activity, inositol trisphosphate turnover assay to each entry below.

// query Quick one: Emax [Δ %], inverse agonistic activity, inositol trisphosphate turnover assay for KXXXLL (1-naphthyl-D-alanine (D-1-Nal) at 2; tert-butyl-L-phenylalanine (L-tBf) at 3; D-Trp at 4; C-terminal amide) [K-(D-1-Nal)-(L-tBf)-wLL-NH2] ?
// result 84 Δ %

// query What does the data say about its Emax [Δ %], inverse agonistic activity, inositol trisphosphate turnover assay? Entry: K[d1Nal][Nva][dW]LL-NH2 (N-terminus assumed; SMILES CCC[C@H](NC(=O)[C@@H](Cc1cccc2ccccc12)NC(=O)[C@@H](N)CCCCN)C(=O)N[C@H](Cc1c[nH]c2ccccc12)C(=O)N[C@@H](CC(C)C)C(=O)N[C@@H](CC(C)C)C(N)=O) [K-(D-1-Nal)-(L-Nva)-wLL-NH2]
// result 71 Δ %

// query Emax [Δ %], inverse agonistic activity, inositol trisphosphate turnover assay for KXXXLL (1-naphthyl-D-alanine (D-1-Nal) at 2; D-Phe at 3; D-Trp at 4; C-terminal amide) [K-(D-1-Nal)-(D-Phe)-wLL-NH2] ?
// result 58 Δ %

// query Which Emax [Δ %], inverse agonistic activity, inositol trisphosphate turnover assay is listed for KXFXLL (1-naphthyl-D-alanine (D-1-Nal) at 2; D-Trp at 4; C-terminal amide) [K-(D-1-Nal)-FwLL-NH2] ?
// result 64 Δ %

// query GET /values?readout=Emax [Δ %], inverse agonistic activity, inositol trisphosphate turnover assay&item= KXXXLL (1-naphthyl-D-alanine (D-1-Nal) at 2; 3-cyclohexyl-L-alanine (L-Cha) at 3; D-Trp at 4; C-terminal amide) [K-(D-1-Nal)-(L-Cha)-wLL-NH2]
// result 85 Δ %
